B1: PTPRD (parent)
chain: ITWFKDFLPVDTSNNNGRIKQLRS

Variants of: B1
Experiment: protein stability index of a GFP-peptide fusion (GPS, HEK-293T) (PSI 1-6); higher = more stable;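 also: lentivirally expressed fusions sorted by FACS into six bins by GFP to DsRed ratio, PSI derived from sequencing read proportions per bin multiplied by bin number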
Conditions: c terminus: a fixed tail appended
// protein stability index lookup, one value per entry

Change | protein stability index
L8C | 1.81
W3C | 2.82
P9A | 2
T2W | 2.21
K20S | 2.72
R23F | 1.88
G17Y | 1.78
D6L | 3.08
K20N | 2.08
G17F | 2.33
N16F | 1.82
R18M | 1.63
T2V | 1.86
N14K | 2.04
I19M | 2.04
D11I | 2.44
N14E | 2.05
T12I | 2.01
T12Y | 1.55
G17S | 2.33
K20W | 1.95
S13D | 2.22
T2P | 3
K20D | 2.05
L22F | 2.01
F4E | 3.97
S13R | 1.88
I19C | 1.69
I1S | 3.17
F7R | 1.8
S13N | 1.68
T2S | 2.12
R18F | 2.04
N15Q | 1.76
S13G | 1.77
F4M | 1.59
S13L | 1.88
N15D | 1.74
I19F | 2.25
S24H | 1.74
I19A | 1.72
D6I | 3.07
I1G | 3.39
G17C | 1.88
K5P | 2.24
D11G | 1.99
R23L | 1.81
R18L | 1.45
T2H | 2.15
K20P | 1.61
P9Q | 2.12
L8E | 1.85
L8V | 1.77
Q21W | 2.24
T2F | 2.41
R18Y | 2.1
I19G | 2.24
I19R | 1.84
L22T | 2.12
Q21I | 2.23
I1K | 2.99
R18P | 2.08
D11Q | 1.84
K20Q | 1.94
F7H | 2.76
T2C | 2.09
N14D | 1.66
I1T | 3.02
K5Q | 2.07
S13A | 1.62
